# System: HuCCA-1 (cholangiocarcinoma derived from a patient)
# PROCEDURE TEXT: Cytotoxic activity assay (MTT)
# Format: cell-based, human
# CONDITION SET: Homo sapiens, HuCC-A1; 48 h exposure, MTT; read-out: Cell lines, IC50 (μM) HuCCA-1
QUANTITY: IC50 (µM)
Give the quantity in µM, number only.

[[record]]
compound = "C=C1CC[C@H]2C(C)(C)CCC[C@]2(C)[C@H]1CC/C(C)=C/C(=O)N1CCCCC1"
reported = 41.2


Task: Suppose we examine the compound COc1cccc2c1C(=O)c1c(O)c3c(c(O)c1C2=O)C[C@@](O)(C(=O)CO)C[C@@H]3O[C@H]1C[C@H](N)[C@H](O)[C@H](C)O1 [DOX, doxorubicin, reference compound] ; what IC50 value has been reported?
Result: 0.78

Task: Suppose we examine the compound C=C1CC[C@H]2C(C)(C)CCC[C@]2(C)[C@H]1CC/C(C)=C/C(=O)NN ; what IC50 value has been reported?
Result: 130
